FYI, the data here is from patent US20240255522A1.

# system: HLA-DRB1*15:01 MHCII molecule (human)
# method_summary: saturation binding ELISA; pH 5
Where no end group is shown, it is not given here.
parameter: Kd (nM)

- binder: "PVSKMRMATPLLMQA (also: biotinylated, position not given here) [biotinylated high affinity huCLIP]"
  parameter: "Kd"
  readout_number: 87.9
